Reference for the values: ChEMBL document CHEMBL3988442

Each entry below carries its reported Percent Effect.
Target: Protein translocase subunit SecA (Escherichia coli (strain K12)) (UniProt P10408)
Sequence (P10408 whole entry): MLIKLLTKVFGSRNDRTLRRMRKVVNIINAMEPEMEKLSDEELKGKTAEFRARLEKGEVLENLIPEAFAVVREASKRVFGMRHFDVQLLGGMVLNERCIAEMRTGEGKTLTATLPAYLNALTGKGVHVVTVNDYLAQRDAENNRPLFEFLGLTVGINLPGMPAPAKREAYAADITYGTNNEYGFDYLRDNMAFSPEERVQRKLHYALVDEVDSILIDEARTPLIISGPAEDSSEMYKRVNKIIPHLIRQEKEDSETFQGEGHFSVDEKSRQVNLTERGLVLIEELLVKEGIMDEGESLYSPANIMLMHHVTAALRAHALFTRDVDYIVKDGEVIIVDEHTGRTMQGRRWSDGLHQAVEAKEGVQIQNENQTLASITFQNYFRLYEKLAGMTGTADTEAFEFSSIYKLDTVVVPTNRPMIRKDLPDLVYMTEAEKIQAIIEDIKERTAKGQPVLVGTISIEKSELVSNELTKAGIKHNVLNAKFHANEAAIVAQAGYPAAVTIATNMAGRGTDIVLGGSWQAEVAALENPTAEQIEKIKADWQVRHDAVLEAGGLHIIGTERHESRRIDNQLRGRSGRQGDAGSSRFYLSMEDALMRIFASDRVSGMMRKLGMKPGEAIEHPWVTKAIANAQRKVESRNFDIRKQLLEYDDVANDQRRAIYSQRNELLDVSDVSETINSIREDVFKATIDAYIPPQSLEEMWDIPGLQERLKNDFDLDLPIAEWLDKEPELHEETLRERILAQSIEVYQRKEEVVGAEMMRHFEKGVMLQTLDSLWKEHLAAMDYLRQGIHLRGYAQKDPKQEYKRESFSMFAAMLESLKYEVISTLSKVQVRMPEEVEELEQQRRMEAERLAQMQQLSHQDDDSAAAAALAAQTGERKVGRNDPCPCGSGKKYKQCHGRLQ
Assay: Assay to Identify E. coli SecA ATPase Inhibitors
Format: functional
Parameters: scale not given: direction of the effect not stated beside the values
Conditions: 30 µM
Entries with a potency or affinity are not part of this list.

Compound	Percent Effect [%]
CCOc1ncccc1C(=O)N(C)Cc1ncc(C)c(OC)c1C	-0.0989
Cc1nc(Nc2ncccn2)cc(C2CCCN2CC(C)C)n1 (configuration not stated)	-6.07
CCOCCCNC(=O)c1cc(C)nc(N2CCCC2)n1	-10.2
CCc1nnc(CN(C)c2nc(C3CCCC3)nc3c2cnn3C)o1	-4.33
Cc1ccccc1CSc1nc(N)cc(N2CC[C@@H](O)C2)n1	-5.3
O=C(NCCN1CCOCC1)NCc1ncc(-c2ccccc2)o1	-2.93
COc1c(CNCCNC(=O)Cc2ccc(F)cc2)c(C)nn1C	-1.17
CCn1c(CN2CCCN(C(=O)OC)CC2)nc2c(F)cccc21	-2.85
NC(=O)C(CNC(=O)COCC(F)(F)F)Cc1ccc(F)cc1 (configuration not stated)	-3.66
CN(C(=O)c1cccc(C(=O)NCC(F)(F)F)c1)c1ccccc1	-6.02
CNC(=O)N1CC[C@@H]2CN(Cc3cccnc3)S(=O)(=O)[C@@H]2CC1	-2.59
C=C(C)CN(Cc1cccc(O)c1)C1CCC(O)CC1 (configuration not stated)	-4.6
CC1CN(C(=O)CN(Cc2ccccc2Br)C2CC2)CCO1 (configuration not stated)	-1.13
COc1ccccc1OCC(=O)NS(=O)(=O)c1cc(F)ccc1F	-2.96
COc1cccc(CN2CCCC2c2c(C)nn(C)c2C)c1 (configuration not stated)	-1.8
CC(C)Oc1cccc(C(O)CNC(=O)CCc2ccncc2)c1 (configuration not stated)	-3.24
Cc1cc(N2CCCN(C(=O)Cc3csc(C)n3)CC2)ccn1	0.872
Cc1cnc(N2CCn3cc(CNC(=O)CC4CC4)nc3C2)nc1	-3.53
CNS(=O)(=O)c1ccc(C(=O)NCCNc2ncccn2)cc1	-3.65
O=C(N[C@@H]1CN(Cc2ccsc2)[C@@H]2CCCO[C@@H]21)C1CC1	-8.12
CC(C)C(=O)N1CCN(C(=O)c2cc(C(C)C)on2)[C@H]2CS(=O)(=O)C[C@H]21	-2.71
Cc1nc(CN2CCC(N(C)Cc3noc(C(C)C)n3)C2)cs1 (configuration not stated)	1.43
CCc1nnc2n1CCN(C(=O)c1csc(-c3cnn(C)c3)n1)C2	-4.14
CCN1C(=O)C2(CCOCC2)c2cc(NC(=O)c3ccco3)ccc21	-4.08
Cc1nc(CN2C[C@@H]3CN(C(=O)c4ccnnc4)C[C@@H]3C2=O)cs1	-4.78
CC(C)Cc1noc(CN2CCN(C(=O)c3cccc(F)c3)CC2)n1	-4.75
CC(C)Oc1ncccc1CNC(=O)N1CCC1c1ccccc1 (configuration not stated)	-7.94

====

Biological target: Ubiquitin-activating enzyme e1, putative (Leishmania donovani (strain BPK282A1))
Experiment: Leishmania donovani Ubiquitin Activating Enzyme (LdE1)
Assay type: functional
Parameters: scale not given: direction of the effect not stated beside the values
Conditions: 30 µM
Entries with a potency or affinity are not part of this list.
Each entry below carries its reported Percent Effect.
Measurement Name: Percent Effect (%)

Compound	Numeric Readout
CC(C)c1nc2c(n1C)CCN(Cc1nc(-c3ccsc3)no1)C2	-24.3
CCC(C)NC(=O)NCCCn1nc2ccccn2c1=O (stereo not drawn)	13.5
Cc1ccc(CN(Cc2ccccn2)C2CC(C)(C)NC(C)(C)C2)s1	-4.05

====

Molecular target: AMP-activated protein kinase, AMPK (Homo sapiens) (UniProt P54646+O43741+P54619+Q9UGJ0+Q9Y478+Q13131+Q9UGI9)
Experiment: AMP-dependent Kinase enzyme assay. An in vitro enzyme assay that detects ADP turnover that is directly proportional to AMPK activity. This uses naive AMPK that is activated during the assay with MK-8722
Type: functional
Design: scale not given: direction of the effect not stated beside the values
Conditions: 30 µM
Each entry below carries its reported Percent Effect.

Compound	Percent Effect
CCCNC(=O)Cn1cc(-c2ccccc2)cn1	12.1%
COc1cccc(C(=O)NCC(O)c2cccs2)c1 (stereo unspecified)	7.67%
Cc1cc(C(C)C(=O)N2CCCN(Cc3cscn3)CC2)c(C)o1 (stereo unspecified)	-6.33%
CC(C)c1nc(C2CCCN2C(=O)c2ccc(N(C)C)nn2)no1 (stereo unspecified)	-4.5%
Cn1ccnc1CN1CCN(c2ccc(C#N)cc2F)CC1	-10.5%
Cc1oncc1C(=O)N1CCC2(CCN(Cc3ccccn3)C2=O)C1 (stereo unspecified)	-0.544%
Cc1nc(CN2CCCC(N(C)Cc3nnsc3Cl)C2)no1 (stereo unspecified)	0.941%
CCNC(=O)c1nnc2ccc(N3CCOCC3)cc2n1	58.5%
Cc1ccc(OCCC(=O)NC2CCc3nc(C)cn3C2)cc1 (stereo unspecified)	5.43%
CC(=O)N1CC(=O)N(c2ccccc2)CC12CCN(Cc1cccs1)C2 (stereo unspecified)	-5.96%
COCCN1C(=O)C[C@H]2[C@H]1CCN2Cc1cccc(C#N)c1	7.27%
Cn1cccc1C(=O)N1CCc2ncnc(N3CCCC3)c2CC1	8.28%
CC(C)Cc1noc(CN2CCN(CCO)CC2)n1	1.51%
CC(=O)N1CCn2c(COCc3csc(C)n3)cnc2C1C (stereo unspecified)	-3.96%
Cn1cc(S(=O)(=O)N2CCCC2CC(=O)c2cccs2)cn1 (stereo unspecified)	0.659%
CCOc1cc(/C=C/c2ncc(C(=O)O)s2)ccc1O	44.7%
O=C(NC1CC1)N1CCc2ncnc(-c3ccncc3)c2CC1	17.6%
COC1CCN(C(=O)CCc2c(C)nc3ccnn3c2C)CC1	1.13%
O=C(NC1(c2cccc(F)c2)CCOCC1)c1cc[nH]n1	0.0633%
O=C(c1cnccn1)N1C[C@@H]2CC[C@H](C1)N(C(=O)Cc1ccsc1)C2	5.34%
CN(Cc1cccc(O)c1)CC1CCCN(CCc2ccc(Cl)cc2)C1 (stereo unspecified)	1.05%
NC(=O)C1CCN(Cc2cccc(NC(=O)c3ccsc3)c2)CC1	-1.03%
O=C(c1ccc2c(c1)OCO2)N1CCCC(n2cccn2)C1 (stereo unspecified)	-7.46%
CNC(=O)CS(=O)(=O)Cc1coc(-c2ccc(F)cc2)n1	-2.17%
O=C1CC(c2ccsc2)c2c(n(C3CCOCC3)[nH]c2=O)N1 (stereo unspecified)	-12.7%
CCS(=O)(=O)N1CCC2(CC(=O)N(c3cccc(C)c3)C2)C1 (stereo unspecified)	-0.745%
CCOC(=O)c1sc2ccsc2c1CNC(=O)C(C)(C)C#N	8.08%
Cc1nc(CO[C@@H]2CN(Cc3cnn(C)c3)[C@@H]3COC[C@@H]32)cs1	1.23%
CCS(=O)(=O)N1C[C@H]2C[C@H](C(=O)N(C)C)[C@@H](C1)O2	9.37%
CCCN(CC1COc2ccccc2O1)C(=O)CCn1cncn1 (stereo unspecified)	-1.36%
COCCC(=O)N1CCC2(CN(Cc3ccc(OC)c(F)c3)C2)C1	-3.76%

====

Target: Sialic acid-binding Ig-like lectin 9 (Homo sapiens) (UniProt Q9Y336)
Sequence (Q9Y336 whole entry): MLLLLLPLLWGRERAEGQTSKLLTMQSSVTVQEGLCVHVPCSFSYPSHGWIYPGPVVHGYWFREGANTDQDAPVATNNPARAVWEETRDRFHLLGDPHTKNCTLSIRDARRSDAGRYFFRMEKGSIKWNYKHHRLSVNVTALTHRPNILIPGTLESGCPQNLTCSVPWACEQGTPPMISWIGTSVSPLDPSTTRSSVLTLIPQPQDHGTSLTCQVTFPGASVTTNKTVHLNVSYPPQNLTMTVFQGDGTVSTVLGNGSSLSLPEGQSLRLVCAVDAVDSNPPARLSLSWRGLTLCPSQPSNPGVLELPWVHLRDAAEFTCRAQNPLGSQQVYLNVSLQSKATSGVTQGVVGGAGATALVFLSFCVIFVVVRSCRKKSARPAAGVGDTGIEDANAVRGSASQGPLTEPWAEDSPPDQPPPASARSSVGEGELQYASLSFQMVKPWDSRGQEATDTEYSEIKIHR
Assay: Hs-Siglec9 ALPHAscreen SOP 20170721
Parameters: scale not given: direction of the effect not stated beside the values
Conditions: 10 µM
Measurement Name: Percent Effect (%)

Compound	Numeric Readout
COCCc1noc(CNC2CCc3nc(C(C)C)nn3C2)n1 (stereo not drawn)	-4.34
c1csc(-c2nc(CN3CCCC3Cn3cncn3)co2)c1 (stereo not drawn)	1.3
CCOC(CC)C(=O)NCCC(=O)N1CCN(c2ccccn2)CC1 (stereo not drawn)	4.32
Cc1cccc(C(=O)N(C)Cc2cc(Br)cs2)n1	4.27
COc1c(C2CCCN2CC(=O)Nc2nc(C)cs2)c(C)nn1C (stereo not drawn)	10.3
O=C(CCc1cccs1)N1CCC(N2CCNC2=O)CC1	-12.7
CCc1noc(C(C)N2CCN(Cc3ncc(C(C)(C)C)o3)CC2)n1 (stereo not drawn)	-2.15
CC(NC(N)=O)C(=O)N1CCCN(Cc2nccn2C(C)C)CC1 (stereo not drawn)	0.743
Cc1ccc(C(=O)Nc2cn[nH]c2)cc1C	3.99
COCCN1C[C@@H]2CCCO[C@@H]2[C@H](N(C)Cc2ccco2)C1	-6.59
CN(Cc1ccc(F)cc1)C(=O)CN1CCOC(Cn2cncn2)C1 (stereo not drawn)	-5.85
CS(=O)(=O)NCCCN1CCCC1c1ccccc1 (stereo not drawn)	6.79
O=c1oc(-c2cccs2)nn1CC(O)c1ccc(F)cc1 (stereo not drawn)	3.88
Cc1nnc2n1CCN(C(=O)c1cc(Cl)c[nH]1)C2	10.9
CCN(C)c1ncnc2c1CCN(C(=O)N1CCCC1)CC2	0.87
O=C(Nc1ccc(F)c(Br)c1)N1CCCC1	-0.317
FC(F)(F)COCCN1CCN(c2ccc3nncn3n2)CC1	9.49
CC(C)(C)c1nc(CN2CCCC2CCc2ccccc2)no1 (stereo not drawn)	-2.77
COC(=O)c1sccc1S(=O)(=O)NCC1(O)CCOc2ccccc21 (stereo not drawn)	-3.21
c1cncc(COCc2nnc3n2CCN(Cc2ccsc2)C3)c1	6.44
Cn1ncc2c1CCCC2NCc1cc(Br)cs1 (stereo not drawn)	-1.41
CC(C)c1nc(CN2CCCCC2)cs1	0.118
CCNC(=O)Nc1ccc2c(ccn2CC(=O)N(CC)CC)c1	1.44
Cc1nc(N2CCCC2)nc2c1CCN(C(=O)CC1CC1)CC2	4.72
CC(C)CN1CCN(C(=O)Nc2cc(C(F)(F)F)c[nH]c2=O)CC1	4.09
O=C(O)c1ccc(F)c(S(=O)(=O)Nc2ccc(-n3cccn3)c(Cl)c2)c1	-0.566
Cc1csc(CNC(=O)NC2CCN(c3ncccn3)CC2)n1	16.2
CCc1cnc(CN(C)C2CCN(CCc3ccccn3)C2)o1 (stereo not drawn)	1.45
Cc1cncc(C(=O)N2CCC(Cn3cc(-c4ccsc4)nn3)CC2)c1	2.1
CC(=O)N1CCN(CC2CCOc3ccccc3C2)CC1 (stereo not drawn)	5.04
COc1cccc(CCNS(=O)(=O)c2ccc(NC(C)=O)cc2)c1	-2.24
CN(C)CC1CN(CCOc2cccc(C#N)c2)CCO1 (stereo not drawn)	-5.38
CCc1ccc(NS(=O)(=O)CC2=NC(=O)n3cccc3C2=O)cc1	5.52
CC(NC1CCN(CCS(C)(=O)=O)CC1)c1ccc(Cl)cc1 (stereo not drawn)	0.142
Cc1nc(CN2CCCC(Cn3cc(CCO)nn3)C2)c[nH]1 (stereo not drawn)	20.6
c1ncc(Nc2nccc(C3CCCCN3CC3CCCCC3)n2)cn1 (stereo not drawn)	-4.81
Cc1nc(N2CCOCC2)nc2c1CCN(Cc1cccnc1)CC2	7.94
O=C(c1ccc2c(c1)CCCC2)N1CCOCC1c1ncon1 (stereo not drawn)	7.55
